These data points were gathered from patent US12516044B2.

What pIC50 was measured for each of the following?
- assayed system: PD-1/PD-L1 protein/protein interaction (Homo sapiens)
- Construct: Recombinant human PD-L1 protein (19-238) with a His-tag at the C-terminus; PD1-H5257 (PD-1-Fc)
- Sequence (Q9NZQ7 19-238): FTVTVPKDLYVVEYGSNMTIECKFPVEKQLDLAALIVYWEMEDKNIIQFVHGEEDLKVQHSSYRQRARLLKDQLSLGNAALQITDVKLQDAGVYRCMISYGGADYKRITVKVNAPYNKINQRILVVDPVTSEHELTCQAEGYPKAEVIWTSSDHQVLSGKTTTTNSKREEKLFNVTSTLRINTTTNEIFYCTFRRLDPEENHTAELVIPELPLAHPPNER
- assay explanation: PD-1/PD-L1 Homogeneous Time-Resolved Fluorescence (HTRF) Binding Assay
- settings: recombinant human PD-L1 (19-238) His-tag and human PD-1 (25-167) Fc tag; 25° C., PBS pH 7.4
pIC50: −log10 of the molar value.

N#Cc1c(NC(=O)c2ccc(CNCCO)cn2)cccc1N1CCCCC1 < 6.00

Dear colleague, could you send me pIC50 for each of the items below? Thanks.
1. Cc1c(NC(=O)c2ncc(CNCCO)cc2N(C)C)cccc1-c1ccccc1
2. Cc1nc(C(=O)Nc2cccc(-c3ccccc3)c2C)ccc1CNCCO
3. Cc1c(NC(=O)c2ccc(CNCCO)cn2)cc(F)cc1-c1ccc2c(c1)OCCO2
4. Cc1c(NC(=O)c2ccc(CNCCO)nn2)cccc1-c1ccccc1

1: 6.00 to 7.00; 2: 7.00 to 8.00; 3: ≥ 8.00; 4: 7.00 to 8.00
